target: CDK6/cyclin D3 (Homo sapiens, UniProt Q00534); test: Assay of kinase activity (ADP-Glo); settings: kinase inhibitory activity
Sequence (Q00534 whole entry, species assumed): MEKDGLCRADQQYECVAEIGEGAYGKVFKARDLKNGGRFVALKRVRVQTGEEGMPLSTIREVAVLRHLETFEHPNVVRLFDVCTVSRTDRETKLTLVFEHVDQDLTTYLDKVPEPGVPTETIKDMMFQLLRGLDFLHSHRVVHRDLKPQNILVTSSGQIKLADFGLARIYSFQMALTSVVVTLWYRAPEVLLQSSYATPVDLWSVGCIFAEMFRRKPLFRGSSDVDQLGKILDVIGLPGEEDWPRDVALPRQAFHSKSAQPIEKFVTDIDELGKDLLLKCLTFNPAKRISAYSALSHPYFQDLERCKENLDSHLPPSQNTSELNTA
Sequence (P30281 whole entry partner, species assumed): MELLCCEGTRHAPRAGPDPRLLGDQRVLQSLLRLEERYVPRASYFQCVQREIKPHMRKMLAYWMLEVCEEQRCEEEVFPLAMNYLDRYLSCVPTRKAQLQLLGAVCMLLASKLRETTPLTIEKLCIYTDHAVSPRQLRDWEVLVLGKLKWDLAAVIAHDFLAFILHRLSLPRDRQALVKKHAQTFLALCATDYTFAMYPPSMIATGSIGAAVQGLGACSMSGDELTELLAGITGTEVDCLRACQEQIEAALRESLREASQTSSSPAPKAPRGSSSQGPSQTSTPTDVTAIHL
Endpoint label: pIC50
Numbers only, as −log10 of the molar value.

> print(dat)
                                   compound  endpoint.value
1  CC(C)n1nnc2c(C(F)F)cc3cnc(Nc4ccc(C(=O)N5CCCNCC5)cc4)nc3c21 [Example I-46]            7.62
2  CC(C)n1nnc2ccc3cnc(Nc4ccc(C(=O)N5CC[C@@H](N)C5)cc4)nc3c21 [Example I-5]            8.00
3  CN1CCCN(C(=O)c2ccc(Nc3ncc4ccc5nnn([C@@H]6CCC[C@@]6(C)O)c5c4n3)cc2)CC1 [Example I-70]            8.70

Moving on to another compound below.
Log: CDK6/cyclin D3 (Homo sapiens, UniProt Q00534), compound CC(C)n1nnc2ccc3cnc(Nc4ccc(C(=O)N5CCN[C@@H](C)C5)cc4)nc3c21 [Example I-20] , pIC50 = 7.80

###

target: CDK2/cyclin E (Homo sapiens, UniProt P24941); assay: Assay of kinase activity (ADP-Glo); details: kinase inhibitory activity, read-out: CDK2/E1 IC50
So I've got a bunch of compounds here, and I need their pIC50 values.
Numbers only, as −log10 of the molar value.

Solved cases (2 shown):
> print(dat)
                                   compound  endpoint.value
1  C[C@@]1(O)CCC[C@H]1n1nnc2ccc3cnc(Nc4ccc(C(=O)N5CCCNCC5)cc4)nc3c21           10.30
2  CC(C)N[C@H]1CCN(C(=O)c2ccc(Nc3ncc4ccc5nnn(C(C)C)c5c4n3)cc2)C1           10.00

Hi, could you look up pIC50 for each item in my list?
1. CC(C)n1nnc2ccc3cnc(Nc4ccc(C(=O)N5CC[C@H](N)[C@H](O)C5)cc4)nc3c21
2. CC(C)n1nnc2ccc3cnc(Nc4ccc(C(=O)N5CCC(O)C5)cc4)nc3c21 (stereo not shown)
3. CC(C)n1nnc2ccc3cnc(Nc4ccc(C(=O)N5CC[C@@H](N(C)C)C5)cc4)nc3c21
4. C[C@@]1(O)CCC[C@H]1n1nnc2ccc3cnc(Nc4ccc(C(=O)N5CCS(=O)(=O)CC5)cc4)nc3c21
5. CC(C)n1nnc2ccc3cnc(Nc4ccc(C(=O)N5CC[C@@H](N)C5)cc4)nc3c21
6. C[C@@H](n1nnc2ccc3cnc(Nc4ccc(C(=O)N5CCS(=O)(=O)CC5)cc4)nc3c21)C(C)(C)O
7. CC(C)n1nnc2ccc3cnc(Nc4ccc(C(=O)N5CC[C@@H](F)C5)cc4)nc3c21

1: 8.70; 2: 9.40; 3: 10.10; 4: 9.00; 5: 10.15; 6: 9.00; 7: 9.52

Log: CDK2/cyclin E (Homo sapiens, UniProt P24941), compound CC(C)n1nnc2ccc3cnc(Nc4ccc(C(=O)N5CCNC(C)(C)C5)cc4)nc3c21 , pIC50 = 8.70

###

So I've got a bunch of compounds here, and I need their pIC50 values.
molecular target: CDK2/cyclin E (Homo sapiens, UniProt P24941); experiment: Assay of kinase activity (ADP-Glo); settings: kinase inhibitory activity, read-out: CDK2/E1 IC50
One number for each entry, as −log10 of the molar value.

Solved cases (5 shown):
> print(dat)
                                smiles.code                            assayed.target  endpoint.label  endpoint.value
1  C[C@@H](n1nnc2ccc3cnc(Nc4ccc(C(=O)N5CCNCC5)cc4)nc3c21)C(C)(C)O  CDK2/cyclin E (Homo sapiens, UniProt P24941)           pIC50            9.10
2  CC(C)N[C@@H]1CCN(C(=O)c2ccc(Nc3ncc4ccc5nnn(C(C)C)c5c4n3)cc2)C1  CDK2/cyclin E (Homo sapiens, UniProt P24941)           pIC50            9.70
3  CN[C@@H]1CCN(C(=O)c2ccc(Nc3ncc4ccc5nnn(C(C)C)c5c4n3)cc2)C1  CDK2/cyclin E (Homo sapiens, UniProt P24941)           pIC50           10.00
4  CC(C)n1nnc2ccc3cnc(Nc4ccc(C(=O)N5CCC(N(C)C)CC5)cc4)nc3c21  CDK2/cyclin E (Homo sapiens, UniProt P24941)           pIC50            9.00
5  CC(C)N1CCN(C(=O)c2ccc(Nc3ncc4ccc5nnn(C(C)C)c5c4n3)cc2)CC1  CDK2/cyclin E (Homo sapiens, UniProt P24941)           pIC50            9.00

Hi, could you look up pIC50 for each item in my list?
1. CN[C@H]1CCN(C(=O)c2ccc(Nc3ncc4cc(C(F)F)c5nnn(C(C)C)c5c4n3)cc2)C1
2. C[C@H](CO)n1nnc2ccc3cnc(Nc4ccc(C(=O)N5CCOCC5)cc4)nc3c21
3. CN1CCN(C(=O)c2ccc(Nc3ncc4ccc5nnn([C@@H]6CCC[C@@]6(C)O)c5c4n3)cc2)CC1
4. CCN1CCN(C(=O)c2ccc(Nc3ncc4ccc5nnn(C(C)C)c5c4n3)cc2)CC1
5. CC(C)n1nnc2ccc3cnc(Nc4ccc(C(=O)N5CC6CC(C5)N6)cc4)nc3c21
6. CC(C)n1nnc2ccc3cnc(Nc4ccc(C(=O)N5CCN[C@H](C)C5)cc4)nc3c21
7. CC(C)n1nnc2ccc3cnc(Nc4ccc(C(=O)N5CCN(C)[C@@H](C)C5)cc4)nc3c21
8. CC(C)N[C@H]1CCN(C(=O)c2ccc(Nc3ncc4ccc5nnn([C@@H]6CCC[C@@]6(C)O)c5c4n3)cc2)C1

9.15
8.70
9.10
9.00
10.00
9.30
8.70
10.10

Hi, could you look up pIC50 for each item in my list?
1. CN(C)[C@H]1CCN(C(=O)c2ccc(Nc3ncc4ccc5nnn([C@@H]6CCC[C@@]6(C)O)c5c4n3)cc2)C1
2. C[C@@]1(O)CCC[C@H]1n1nnc2ccc3cnc(Nc4ccc(C(=O)N5CC[C@H](N)C5)cc4)nc3c21

[10.00, 10.10]

###

target: CDK6/cyclin D3 (Homo sapiens, UniProt Q00534); assay: Assay of kinase activity (ADP-Glo); format: biochemical; conditions: kinase inhibitory activity
So I've got a bunch of compounds here, and I need their IC50 values.
Numbers only, in nM.

Solved cases (4 shown):
> print(dat)
                                   compound  endpoint.value
1  C[C@H](CO)n1nnc2ccc3cnc(Nc4ccc(C(=O)N5CCOCC5)cc4)nc3c21             149
2  CC(C)n1nnc2ccc3cnc(Nc4ccc(C(=O)N5CC[C@@H](F)C5)cc4)nc3c21              12
3  CC(C)n1nnc2ccc3cnc(Nc4ccc(C(=O)N5CCN(C)CC5)c(F)c4)nc3c21              19
4  N[C@H]1CCN(C(=O)c2ccc(Nc3ncc4ccc5nnn(C6CCCC6)c5c4n3)cc2)C1               3

Hi, could you look up IC50 for each item in my list?
1. C[C@@]1(O)CCC[C@H]1n1nnc2ccc3cnc(Nc4ccc(C(=O)N5CCNCC5)cc4)nc3c21
2. CC(C)n1nnc2c(C(F)F)cc3cnc(Nc4ccc(C(=O)N5CCCN(C)CC5)cc4)nc3c21
3. CC(C)n1nnc2ccc3cnc(Nc4ccc(C(=O)N5CCN[C@H](C)C5)cc4)nc3c21
4. CN[C@H]1CCN(C(=O)c2ccc(Nc3ncc4cc(C(F)F)c5nnn(C(C)C)c5c4n3)cc2)C1

1. 3
2. 20
3. 14
4. 16

###

target: CDK6/cyclin D3 (Homo sapiens); experiment: Assay of kinase activity (ADP-Glo); conditions: kinase inhibitory activity
So I've got a bunch of compounds here, and I need their IC50 values.
One number for each entry, in µM.

> print(dat)
                                smiles.code  endpoint.value
1  CC(C)n1nnc2ccc3cnc(Nc4ccc(C(=O)N5CC[C@@H](N(C)C)C5)cc4)nc3c21           0.006
2  C[C@@]1(O)CCC[C@H]1n1nnc2ccc3cnc(Nc4ccc(C(=O)N5CCOCC5)cc4)nc3c21           0.021
3  CC(C)n1nnc2ccc3cnc(Nc4ccc(C(=O)N5CCN(CCCO)CC5)cc4)nc3c21           0.089

Moving on to another compound below.
Log: CDK6/cyclin D3 (Homo sapiens), compound C[C@@H](n1nnc2ccc3cnc(Nc4ccc(C(=O)N5CC[C@H](N)C5)cc4)nc3c21)C(C)(C)O , IC50 = 0.016

###

molecular target: CDK9/cyclin T1 (Homo sapiens, UniProt P50750); assay: Assay of kinase activity (ADP-Glo); details: kinase inhibitory activity
Sequence (P50750 whole entry, species assumed): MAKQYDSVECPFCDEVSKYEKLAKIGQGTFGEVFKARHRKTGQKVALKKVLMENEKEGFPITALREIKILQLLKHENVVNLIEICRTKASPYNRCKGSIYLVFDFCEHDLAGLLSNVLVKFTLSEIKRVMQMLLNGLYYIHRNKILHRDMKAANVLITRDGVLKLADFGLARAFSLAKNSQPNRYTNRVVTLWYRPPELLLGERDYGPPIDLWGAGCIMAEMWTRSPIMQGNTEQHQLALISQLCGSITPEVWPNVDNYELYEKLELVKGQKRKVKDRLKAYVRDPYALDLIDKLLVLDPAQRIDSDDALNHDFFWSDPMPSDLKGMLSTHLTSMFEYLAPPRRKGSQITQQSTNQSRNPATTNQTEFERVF
Sequence (O60563 whole entry partner, species assumed): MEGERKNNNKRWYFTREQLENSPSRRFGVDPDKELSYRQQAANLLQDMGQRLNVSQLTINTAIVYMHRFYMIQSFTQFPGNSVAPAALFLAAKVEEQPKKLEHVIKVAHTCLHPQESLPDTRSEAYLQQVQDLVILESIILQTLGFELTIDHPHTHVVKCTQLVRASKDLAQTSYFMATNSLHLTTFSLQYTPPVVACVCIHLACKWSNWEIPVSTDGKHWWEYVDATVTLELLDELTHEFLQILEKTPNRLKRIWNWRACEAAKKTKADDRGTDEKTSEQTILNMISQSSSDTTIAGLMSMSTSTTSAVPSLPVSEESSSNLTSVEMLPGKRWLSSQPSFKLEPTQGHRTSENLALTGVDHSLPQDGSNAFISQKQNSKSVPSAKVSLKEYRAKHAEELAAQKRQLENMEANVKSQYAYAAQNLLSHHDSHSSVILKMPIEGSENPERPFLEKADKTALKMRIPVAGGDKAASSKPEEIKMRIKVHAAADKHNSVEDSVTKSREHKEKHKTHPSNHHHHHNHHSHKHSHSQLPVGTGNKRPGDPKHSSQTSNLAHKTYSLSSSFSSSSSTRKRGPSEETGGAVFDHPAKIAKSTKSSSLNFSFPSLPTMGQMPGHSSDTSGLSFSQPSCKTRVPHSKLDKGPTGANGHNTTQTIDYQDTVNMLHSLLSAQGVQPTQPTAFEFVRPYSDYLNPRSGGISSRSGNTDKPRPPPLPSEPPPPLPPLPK
pIC50: −log10 of the molar value.
Label 1.0 for high-side pIC50 (at or above 8) and 0.0 for low-side pIC50 (below it).

Field: example entries. Status: answers known.
> print(dat)
                                smiles.code  class
1  C[C@@H](n1nnc2ccc3cnc(Nc4ccc(C(=O)N5CCOCC5)cc4)nc3c21)C(C)(C)O    0.0
2  CC(C)n1nnc2ccc3cnc(Nc4ccc(C(=O)N5CCCNCC5)cc4)nc3c21    0.0
3  C[C@@]1(O)CCC[C@H]1n1nnc2ccc3cnc(Nc4ccc(C(=O)N5CC[C@H](N)C5)cc4)nc3c21    1.0
4  C[C@@H](n1nnc2ccc3cnc(Nc4ccc(C(=O)N5CCS(=O)(=O)CC5)cc4)nc3c21)C(C)(C)O    0.0
5  C[C@@H](n1nnc2ccc3cnc(Nc4ccc(C(=O)N5CCN(C)CC5)cc4)nc3c21)C(C)(C)O    0.0

Now turn to the next compound.
# check: pIC50 of CN1CCCN(C(=O)c2ccc(Nc3ncc4ccc5nnn([C@@H]6CCC[C@@]6(C)O)c5c4n3)cc2)CC1 is greater than or equal to 8 1.0
